This section presents variants with their documented abundance fitness values.
B1: Proto-oncogene vav, residues 782 to 842; numbered along this chain, P15498 (parent)
chain: KYFGTAKARYDFCARDRSELSLKEGDIIKILNKKGQQGWWRGEIYGRVGWFPANYVEEDYS

Variants of: B1
Test: abundance fitness (aPCA) (normalised: wild type 0, dead -1); higher = more abundant; growth selection in yeast, the domain comes from the species named
Conditions: Homo sapiens
measurement type: abundance fitness

INSERT INTO measurements (entry_sequence, test_value) VALUES
  ('KYLGTAKARYDFCARDRSELSLKEGDIIKILNKKGQQGWWRGEIYGRVGWFPANYVEEDYS [F3L]', 0.027),
  ('KYFGTAKARYDFCARDRSELSLKEGDIIKILNYKGQQGWWRGEIYGRVGWFPANYVEEDYS [K33Y]', -0.475),
  ('KYFGTAKARYDFCARDRSELSLKEGDIIKILNKKGQQGWWRGEIYPRVGWFPANYVEEDYS [G46P]', -0.387),
  ('KYFGTAKARYDFCARDRSELSLKEGDIIKILNKKGQQGWWRGEIYGRVGWFPANYVWEDYS [E57W]', -0.478),
  ('KYFGTAKARYDFCARWRSELSLKEGDIIKILNKKGQQGWWRGEIYGRVGWFPANYVEEDYS [D16W]', -0.617),
  ('KVFGTAKARYDFCARDRSELSLKEGDIIKILNKKGQQGWWRGEIYGRVGWFPANYVEEDYS [Y2V]', -0.247),
  ('KYFGTAKARYDFCARDRSELSLKEGDIIKILNKKGQQPWWRGEIYGRVGWFPANYVEEDYS [G38P]', -0.944),
  ('KYFGTAKARYDFCARDRSELSLKEDDIIKILNKKGQQGWWRGEIYGRVGWFPANYVEEDYS [G25D]', -0.518),
  ('KYFGTAKARYDFCARDRSELSLKEGDIIKILNKKIQQGWWRGEIYGRVGWFPANYVEEDYS [G35I]', -0.334),
  ('KYFGTAKARYDFCARDRSELSLKEGDIIKILNKKGQQGWWRGEIYGRVGWDPANYVEEDYS [F51D]', -0.951),
  ('KYFGKAKARYDFCARDRSELSLKEGDIIKILNKKGQQGWWRGEIYGRVGWFPANYVEEDYS [T5K]', -0.468),
  ('KYFGTAKARNDFCARDRSELSLKEGDIIKILNKKGQQGWWRGEIYGRVGWFPANYVEEDYS [Y10N]', -0.393),
  ('KYFGTAKARYDFCHRDRSELSLKEGDIIKILNKKGQQGWWRGEIYGRVGWFPANYVEEDYS [A14H]', -0.562),
  ('KYFGTAKARYDFCARDRSELSLKDGDIIKILNKKGQQGWWRGEIYGRVGWFPANYVEEDYS [E24D]', -0.361),
  ('KYFGTAKARYDFCARDRSELSLKEGDIIKILNKKGQQGWWRGEIYGRVGWFPANYREEDYS [V56R]', -1.03),
  ('KYFGTAKARYDFCARDRSELSLKEGDIIKILNKKGQQGWWRGEKYGRVGWFPANYVEEDYS [I44K]', -0.239),
  ('KYFGTAKARYDFCARDRSELSLKEGDFIKILNKKGQQGWWRGEIYGRVGWFPANYVEEDYS [I27F]', -0.44),
  ('KYFGTAKARYDFCARDRSELSLKETDIIKILNKKGQQGWWRGEIYGRVGWFPANYVEEDYS [G25T]', -0.97),
  ('KYFGTAKARYDFCARDRSTLSLKEGDIIKILNKKGQQGWWRGEIYGRVGWFPANYVEEDYS [E19T]', -0.838),
  ('KYFGTAKARYDFCARDRSELSLKEGDIIKILNKKGQQGWWRGEIYGRVGWFPANYVEEYYS [D59Y]', -0.244),
  ('KYFGTAKARYDFCARDRSELSLKEGDIIKILNKKGQQGWWRGEIYGRVGWFPANYEEEDYS [V56E]', -0.562),
  ('KYFGTAKARYDFCARDRSELSLKEGDIIWILNKKGQQGWWRGEIYGRVGWFPANYVEEDYS [K29W]', -0.4);
